Attribution: patent US9771366B2

- assay remarks: Solubility assessment at 20 mg/ml
- Assay type: physicochemical
- conditions: dissolved in DMSO, diluted in DMEM
value kind: 20 mg/ml Solubility

Check out these entries, answers already filled in.
C[C@@H]1CNC(=O)c2c(Cl)c3ccc(C(=O)Nc4cnn(Cc5ccccc5)c4)nc3n21 = Precipitate
C[C@@H]1CNC(=O)c2cc3ccc(C(=O)Nc4cnn(Cc5ccc(F)cc5F)c4)nc3n21 = Precipitate
C[C@@H]1CNC(=O)c2cc3ccc(C(=O)Nc4cnn(Cc5ccc(N)cc5)c4)nc3n21 = Soluble
C[C@@H]1CNC(=O)c2cc3ccc(C(=O)Nc4ccccc4C(N)=O)nc3n21 = Soluble
C[C@@H]1CNC(=O)c2cc3ccc(C(=O)Nc4cnn(CC5CCN(C)CC5)c4)nc3n21 = Soluble

Which 20 mg/ml Solubility reading was recorded for the compound `C[C@@H]1CNC(=O)c2cc3ccc(C(=O)Nc4cnn(Cc5ccc(C(F)(F)F)cc5)c4)nc3n21` ? Precipitate

---

A short record of pIC50 observed with UniProtKB Q9UK32 follows.
Sequence (Q9UK32 whole entry): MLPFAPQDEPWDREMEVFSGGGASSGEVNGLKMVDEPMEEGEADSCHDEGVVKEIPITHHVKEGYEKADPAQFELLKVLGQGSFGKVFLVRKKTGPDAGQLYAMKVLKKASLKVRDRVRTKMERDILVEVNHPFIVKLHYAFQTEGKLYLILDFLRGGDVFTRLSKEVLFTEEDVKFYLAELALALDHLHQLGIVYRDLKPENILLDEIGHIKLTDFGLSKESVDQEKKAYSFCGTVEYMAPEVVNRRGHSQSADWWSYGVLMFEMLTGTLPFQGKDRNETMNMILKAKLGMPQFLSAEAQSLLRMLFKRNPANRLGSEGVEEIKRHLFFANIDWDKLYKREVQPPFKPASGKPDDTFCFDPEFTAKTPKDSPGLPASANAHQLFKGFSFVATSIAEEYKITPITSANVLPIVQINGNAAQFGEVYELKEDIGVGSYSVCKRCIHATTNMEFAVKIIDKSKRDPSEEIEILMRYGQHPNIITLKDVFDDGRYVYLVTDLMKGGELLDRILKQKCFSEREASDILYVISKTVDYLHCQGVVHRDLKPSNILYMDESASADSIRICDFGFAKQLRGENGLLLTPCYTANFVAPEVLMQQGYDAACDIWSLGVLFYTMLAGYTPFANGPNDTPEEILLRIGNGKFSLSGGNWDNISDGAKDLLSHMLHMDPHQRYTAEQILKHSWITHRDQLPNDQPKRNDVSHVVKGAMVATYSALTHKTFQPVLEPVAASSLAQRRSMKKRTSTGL
Numbers only, as −log10 of the molar value.

C[C@@H]1CNC(=O)c2cc3ccc(C(=O)Nc4cnn(Cc5ccc(N)cc5)c4)nc3n21 = 9.52

Which pIC50 reading was recorded for the compound `C[C@@H]1CNC(=O)c2cc3ccc(NC(=O)c4cnn(Cc5ccccc5)c4)nc3n21` ? 8.10

---

- assay remarks: Plasma and tumor levels by LC/MS in MDA-MB-231 xenograft mice
- Type: in vivo
- conditions: nu/nu, mouse, plasma, oral, 100 mg/kg, 100 mg/kg BID PO three days, 30 minutes after last dose; read-out: plasma level, average
Structures can show the parent of a compound that is named as a salt.
value kind: concentration at 30 min
Remember to put the unit after the number in your answer.

Which concentration at 30 min reading was recorded for the molecule C[C@@H]1CNC(=O)c2cc3ccc(C(=O)Nc4cnn(Cc5ccc(N)cc5)c4)nc3n21 [Compound 25, hydrochloride salt] ? 35.1 µM

---

- assay remarks: Plasma and tumor levels by LC/MS in MDA-MB-231 xenograft mice
- Assay type: in vivo
- conditions: nu/nu, mouse, tumor/plasma, oral, 100 mg/kg; three days of treatment; read-out: tumor uptake (ratio between tumor and plasma)
Structures can show the parent of a compound that is named as a salt.
value kind: Kp at 30 min
Answers are plain numbers.

Which Kp at 30 min reading was recorded for the compound C[C@@H]1CNC(=O)c2cc3ccc(C(=O)Nc4cnn(Cc5ccc(N)cc5)c4)nc3n21 [Compound 25, hydrochloride salt] ? 0.2

---

- assay remarks: Plasma and tumor levels by LC/MS in MDA-MB-231 xenograft mice
- Format: in vivo
- conditions: nu/nu, mouse, tumor, oral, 100 mg/kg, 100 mg/kg BID PO 21 days, 30 minutes after last dose; read-out: average concentration in the tumors
Where a name gives a salt, the structure may show the parent alone.
value kind: concentration at 30 min (µM)
One number for each entry, in µM.

Which concentration at 30 min reading was recorded for the compound C[C@@H]1CNC(=O)c2cc3ccc(C(=O)Nc4cnn(Cc5ccc(N)cc5)c4)nc3n21 [Compound 25, hydrochloride salt] ? 7.7

---

- assay remarks: Plasma and tumor levels by LC/MS in MDA-MB-231 xenograft mice
- Format: in vivo
- conditions: nu/nu, mouse, tumor, oral, 100 mg/kg, 100 mg/kg BID PO three days, 30 minutes after last dose; read-out: Tumor level, average
Where a name gives a salt, the structure may show the parent alone.
value kind: concentration at 30 min (µM)
Numbers only, in µM.

Which concentration at 30 min reading was recorded for the compound C[C@@H]1CNC(=O)c2cc3ccc(C(=O)Nc4cnn(Cc5ccc(N)cc5)c4)nc3n21 [Compound 25, hydrochloride salt] ? 7.1
